Numbers sourced from patent US20140302063A1.

Molecular target: Recombinant haemagglutinin HA1 domain (18-344) (A/California/06/09) H1N1 (Influenza A virus A/California/06/09 (H1N1))
Assay: SPR, single cycle kinetics, HA1 domain immobilised
pKd: −log10 of the molar value.
Use pKd to assign classes; range list: lo (below 7), med (7 to below 8), hi (8 or more)

BINDER | ANSWER_LABEL
R1a-F4 (VHH) VHH: QVQLVESGGGLVQPGGSLRLSCAASGSISRIVTMGWYRQGPGKERELVAVIGNYGNTNYADSVKGRFTVSRDNAKDTAYLQMNNLNVEDTAMYYCKCSTTTPPHEFWGQGTQVTVSS | hi
R1a-G6 (VHH) VHH: QVQLVESGGGLVQSGGSLRLSCAASGSMSRIITMGWYRQAPGMERELVAVIGNNDNTVYGDSVQGRFTVSRDNAKNTAYLQMNSLNAEDTAMYYCKISTLTPPHEYWGQGTQVTVSS | hi
R2a-H9 (VHH) VHH: QVQLVESGGGLVQPGGSLRLSCAASTNIASFYTMGWYRQTPGQQRDVVAVIGNGGNTNYADSVKGRFTISRDGAKNTAHLQMNSLKPEDTDVYYCKASGPGGVILWGQGTQVTVSS | hi

Form: Item = R1a-C5 (VHH) VHH: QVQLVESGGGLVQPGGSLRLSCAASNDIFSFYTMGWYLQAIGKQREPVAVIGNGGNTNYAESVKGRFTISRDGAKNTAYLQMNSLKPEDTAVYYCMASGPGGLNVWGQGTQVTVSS ; Class = ?
lo

How about R1a-E6 (VHH) VHH: QVQLVESGGGLVQPGGSLRLSCAASGFTLGAYAIAWFRQAPGKEREGVSCISPSDSFTEYGDSVKGRFTVSRDNAKNTVYLQMNSLQPEDTAVYYCAADPVCTAGWYRPSRFDLWGQGTQVTVSS ?
med

How about R1a-G5 (VHH) VHH: QLQLVESGGGLVQPGGSLRLSCAASGSISRIVTMGWYRQASGKERELVAVIGNYGNTNYADSVKGRFTVSRDNAKDTAYLQMNGLNVEDTAIYYCKTSTTTPPYEYWGQGTQVTVSS ?
med
